Biological target: T1, human BCMA (human, UniProt Q02223 1-184)
T1 construct: whole, on cells; the cell line is named under assay; also called TNFRSF17; CD269
T1 sequence (looked up): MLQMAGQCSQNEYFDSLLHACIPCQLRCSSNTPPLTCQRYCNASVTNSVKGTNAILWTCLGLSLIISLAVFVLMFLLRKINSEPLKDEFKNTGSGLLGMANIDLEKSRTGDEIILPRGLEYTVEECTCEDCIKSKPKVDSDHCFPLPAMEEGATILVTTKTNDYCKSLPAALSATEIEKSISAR
Assay: flow cytometry, NCI-H929 cells, Flag-tagged VH single domain, anti-tag secondary antibody
observed.property: Maximum MFI
Returns: the value as a bare number; no unit string appended.

- PR004573, PR001046 VH-derived single-domain variant 1046-R2-8B1 (VHH, Tested as VH single domain with Flag and His tags; not shown: Flag and His tags) VHH: EVQLVETGGGLIQPGGSLRLSCAASGFTVSDSYMTWVRQAPGKGLEWVSVIFSGGKTYYADSVKGRFTISRDNAKNTLYLQMNSLRAEDTALYYCARRNYDDTRGTDVFDIWGQGTMVTVSS: 1230
- PR004565, PR001046 VH-derived single-domain variant 1046-R2-2G4 (VHH, Tested as VH single domain with Flag and His tags; not shown: Flag and His tags) VHH: EVQLVETGGGLIQPGGSLRLSCAASGFTVSDAYMTWVRQAPGKGLEWVSVIFSGGNTYVSDSVKGRFTISRDNAKNTLYLQMNSLRAEDTALYYCARRNYDQTIGTDVFDIWGQGTMVTVSS: 1430

Q: // Input: PR004561, PR001046 VH-derived single-domain variant 1046-R2-10H1 (VHH, Tested as VH single domain with Flag and His tags; not shown: Flag and His tags) VHH: EVQLVETGGGLIQPGGSLRLSCAASGFTVSDSYMTWVRQAPGKGLEWVSVIFSGGNTYYADSVKGRFTISRDNAKNTLYLQMNSLRAEDTALYYCARRNYDQTLGTDVFDIWGQGTMVTVSS . Output its Maximum MFI only.
Ans: 1240

Q: Provide one value: measured Maximum MFI of PR004566, PR001046 VH-derived single-domain variant 1046-R2-4G10 (VHH, Tested as VH single domain with Flag and His tags; not shown: Flag and His tags) VHH: EVQLVETGGGLIQPGGSLRLSCAASGFTVSDSYMTWVRQAPGKGLEWVSVIFSGGRTYYSDSVKGRFTISRDNAKNTLYLQMNSLRAEDTALYYCARRNYDDTRGTDVFDIWGQGTMVTVSS
Ans: 1400

Q: Report Maximum MFI, nothing else, for this binder: PR004572, PR001046 VH-derived single-domain variant 1046-R2-7E7 (VHH, Tested as VH single domain with Flag and His tags; also called PR001046-R2-7E7; not shown: Flag and His tags) VHH: EVQLVETGGGLIQPGGSLRLSCAASGFTVSDSYMTWVRQAPGKGLEWVSVIFSGGKTYVADSVKGRFTISRDNAKNTLYLQMNSLRAEDTALYYCARRNYDDTRGTDVFDIWGQGTMVTVSS
Ans: 1500

Q: Using known records, supply Maximum MFI for PR004563, PR001046 VH-derived single-domain variant 1046-R2-1A1 (VHH, Tested as VH single domain with Flag and His tags; not shown: Flag and His tags) VHH: EVQLVETGGGLIQPGGSLRLSCAASGFTVYDNYMTWVRQAPGKGLEWVSVIFSGGKTYVADSVKGRFTISRDNAKNTLYLQMNSLRAEDTALYYCARRNYDQTRGTDVFDIWGQGTMVTVSS
Ans: 1260

Q: Consider the binder PR004564, PR001046 VH-derived single-domain variant 1046-R2-2D4 (VHH, Tested as VH single domain with Flag and His tags; not shown: Flag and His tags) VHH: EVQLVETGGGLIQPGGSLRLSCAASGFTVSDSYMTWVRQAPGKGLEWVSVIFSGGRTYYSDSVKGRFTISRDNAKNTLYLQMNSLRAEDTALYYCARRNYDQTLGTDVFDIWGQGTMVTVSS . State its measured Maximum MFI.
Ans: 1530

Q: Identify measured Maximum MFI associated with PR004562, PR001046 VH-derived single-domain variant 1046-R2-10H5 (VHH, Tested as VH single domain with Flag and His tags; not shown: Flag and His tags) VHH: EVQLVETGGGLIQPGGSLRLSCAASGFTVSDSYMTWVRQAPGKGLEWVSVIFSGGKTYYSDSVKGRFTISRDNAKNTLYLQMNSLRAEDTALYYCARRNYDQTLGTDVFDIWGQGTMVTVSS
Ans: 1560

Q: State its Maximum MFI for this binder: PR004559, PR001046 VH-derived single-domain variant 1046-R1-12G7 (VHH, Tested as VH single domain with Flag and His tags; also called PR001046-R1-12G7; not shown: Flag and His tags) VHH: EVQLVETGGGLIQPGGSLRLSCAASGFTVSDNYMTWVRQAPGKGLEWVSVIFSGGKTYYADSVKGRFTISRDNAKNTLYLQMNSLRAEDTALYYCARRNYDDTRGTDVFDIWGQGTMVTVSS
Ans: 1190
